# Test system: PXR:RXRa (NR concentration 270 nM, RXRa partner concentration 90 nM)
# experimentalDetails: PBM binding z-score (relative to random genomic background probes); higher = stronger binding; sequences stand for … in GC…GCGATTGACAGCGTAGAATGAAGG
Kindly supply the reported PBM binding z-score values for the records listed here.
One number for each entry.

{"sequenceChain": "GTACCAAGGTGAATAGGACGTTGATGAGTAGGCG", "PBM binding z-score": -0.246}
{"sequenceChain": "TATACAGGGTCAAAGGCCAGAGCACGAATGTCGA", "PBM binding z-score": 4.17}

I'm hoping you can list PBM binding z-score for every sequence here, please.
1. ATCTTTAGGTAAAGTTCAGTGAAAGATCGATAGA
2. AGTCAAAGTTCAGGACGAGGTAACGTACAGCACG
3. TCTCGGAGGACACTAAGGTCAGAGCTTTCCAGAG
4. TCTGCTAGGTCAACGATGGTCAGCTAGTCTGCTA
5. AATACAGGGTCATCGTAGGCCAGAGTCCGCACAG
6. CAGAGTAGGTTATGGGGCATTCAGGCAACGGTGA
7. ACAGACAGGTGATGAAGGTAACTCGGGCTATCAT

1. 2.02
2. 2.95
3. 3.24
4. 1.42
5. 4.96
6. 0.233
7. -0.0935

FYI, the data here is from the supplement of paper PMC6555819.
